Data provenance is paper PMC5688144.

ASSAY REMARKS: Fluorescence quenching counter-screen
Assay type: physicochemical
CONDITION PARAMETERS: 10 μM fluorophore; 32 nM-100 μM compound
QUANTITY KIND: Quenching counter-screen

COc1ccc(S(=O)(=O)ON=C2C=C(C)C(=O)C(C)=C2)cc1 = Negative
CCCCCCCCCCCCCCC=C(C(=O)OCC)C(=O)OCC = Negative

* * *

ASSAY REMARKS: Absorbance spectra
Assay type: physicochemical
CONDITION PARAMETERS: at absorption max
# key: entry, value: Molar absorptivity
Provide the reading as a plain figure in M⁻¹ cm⁻¹.

COc1cc(/C=C/c2cc(/C=C/c3ccc(O)c(OC)c3)n(-c3ccc(C(=O)[O-])cc3)n2)ccc1O.[Na+] = 30000

[ask] What measured Molar absorptivity goes with CC1=NN(c2ccc(C(=O)O)cc2)C(=O)/C1=C/c1ccc(-c2cc(C)c(C)cc2[N+](=O)[O-])o1 ?
[reply] 18000

[ask] What measured Molar absorptivity goes with O=C1/C(=C/c2ccc(O)c(Br)c2)CCC/C1=C\c1ccc(O)c(Br)c1 ?
[reply] 5100

[ask] What measured Molar absorptivity goes with Cc1cc2c(C(C)C)c(O)c(O)c(C=O)c2c(O)c1-c1c(C)cc2c(C(C)C)c(O)c(O)c(C=O)c2c1O ?
[reply] 22000

[ask] What measured Molar absorptivity goes with COc1cc(/C=C/C(=O)CC(=O)/C=C/c2ccc(O)c(OC)c2)ccc1O ?
[reply] 20000

[ask] What measured Molar absorptivity goes with CCCCCCCCCCCC1=C(O)C(=O)C=C(O)C1=O ?
[reply] 21000

[ask] What measured Molar absorptivity goes with COc1ccc(/C(Cl)=C(/C=O)c2ccc(OC)cc2)cc1 ?
[reply] 4300

[ask] What measured Molar absorptivity goes with Cc1cc(O)cc(C)c1C=C1C(=O)N(Cc2ccccc2)C(=O)N(Cc2ccccc2)C1=O ?
[reply] 2700

[ask] What measured Molar absorptivity goes with O=c1c2cccnc2sn1Cc1ccc(C(F)(F)F)cc1 ?
[reply] 2700
